For each of the compounds below, state its MIC.
Tested on: Trichomonas vaginalis
Experiment Description: Antitrichomonas activity against metronidazole-resistant trophozoite stage of Trichomonas vaginalis ATCC 50143 assessed as cell viability under anaerobic condition after 48 hrs by trypan blue exclusion assay
Format: functional
Condition Label: ATCC 50143, 48 h

Briefly, MIC measured for COc1ccccc1N1CCN(C(=S)SSC(=S)N2CCN(c3ccccc3OC)CC2)CC1 : > 186 µM

// MIC lookup, compound = S=C(SSC(=S)N1CCCC1)N1CCCC1 [BIS(PYRROLIDINYLTHIOCARBONYL)DISULFIDE] , result: 10.6 µM

The compound S=C(SSC(=S)N(C1CCCCC1)C1CCCCC1)N(C1CCCCC1)C1CCCCC1 showed MIC equal to > 194 µM

GET /value?item= CCCCCCCCCCSC(=S)N1CCN(C(=S)SSC(=S)N2CCN(C(=S)SCCCCCCCCCC)CC2)CC1 &field=MIC returns > 132 µM

// MIC lookup, compound = CCCCCCCCCCCCCCCCN1CCN(C(=S)SSC(=S)N2CCN(CCCCCCCCCCCCCCCC)CC2)CC1 , result: > 129 µM

Record CCCCCCCSC(=S)N1CCN(C(=S)SSC(=S)N2CCN(C(=S)SCCCCCCC)CC2)CC1 , field MIC: > 149 µM

Entry S=C(SCCN1CCOCC1)N1CCN(C(=S)SSC(=S)N2CCN(C(=S)SCCN3CCOCC3)CC2)CC1 , MIC reported as > 142 µM

The measured MIC associated with CCCCCCCCN1CCN(C(=S)SSC(=S)N2CCN(CCCCCCCC)CC2)CC1 reads 182 µM

// CC(C)COC(=O)N1CCN(C(=S)SSC(=S)N2CCN(C(=O)OCC(C)C)CC2)CC1 : MIC value = > 191 µM

----------
Experiment Description: Spermicidal activity in human sperms assessed as motility measured within 30 secs by phase contrast microscopy
Format: functional, Sperm
Property Name: MEC

Given item CCCCCCCSC(=S)N1CCN(C(=S)SSC(=S)N2CCN(C(=S)SCCCCCCC)CC2)CC1 , the value recorded as its MEC is >1%

The reported MEC of the molecule C=CCN1CCN(C(=S)SCCCCCC)CC1 was >1%

Lab note: measured MEC of S=C(SCc1ccccc1)N1CCN(C(=S)SSC(=S)N2CCN(C(=S)SCc3ccccc3)CC2)CC1 was >1%

----------
Tested on: Trichomonas vaginalis
Experiment Description: Antitrichomonas activity against metronidazole-resistant trophozoite stage of Trichomonas vaginalis ATCC 50143 assessed as cell viability under anaerobic condition after 48 hrs by trypan blue exclusion assay
Assay type: functional
Condition Label: ATCC 50143, 48 h
Property Name: MIC (µM)
Numbers only here, please. The scale is µM.

Record S=C(SCc1ccccc1)N1CCN(C(=S)SSC(=S)N2CCN(C(=S)SCc3ccccc3)CC2)CC1 . Reported MIC: 95.4

MIC measured on S=C(SSC(=S)N1CCCCCC1)N1CCCCCC1 = 35.8

The recorded MIC for S=C(SSC(=S)N1CCCCC1)N1CCCCC1 [BIS(PIPERIDINYLTHIOCARBONYL)DISULFIDE] is 155

Measured MIC, S=C(SSC(=S)N1CCOCC1)N1CCOCC1 : 9.6

Consider CN(Cc1ccccc1)C(=S)SSC(=S)N(C)Cc1ccccc1 . Its measured MIC is 31.8

The molecule listed as CC1CCN(C(=S)SSC(=S)N2CCC(C)CC2)CC1 has a reported MIC of 35.8
